Reported values: Ki for Lethal factor (Bacillus anthracis, UniProt P15917), one per item.

| compound structure | Ki |
| --- | --- |
| CCCCCCCC/C=C\CCCCCCCC(=O)NCCc1cc(O)c(O)c(O)c1 | 1.7 µM |
| CCCCCCCC/C=C\CCCCCCCC(=O)NCCc1ccc(O)c(O)c1 | 3 µM |
| CCCCCCCC/C=C\CCCCCCCC(=O)NCCc1ccc(C(=O)NO)cc1 | 6 µM |

* * *

Reported IC50 values are given for each entry in this list.
target entity: UniProt:P15917
Sequence (P15917 whole entry): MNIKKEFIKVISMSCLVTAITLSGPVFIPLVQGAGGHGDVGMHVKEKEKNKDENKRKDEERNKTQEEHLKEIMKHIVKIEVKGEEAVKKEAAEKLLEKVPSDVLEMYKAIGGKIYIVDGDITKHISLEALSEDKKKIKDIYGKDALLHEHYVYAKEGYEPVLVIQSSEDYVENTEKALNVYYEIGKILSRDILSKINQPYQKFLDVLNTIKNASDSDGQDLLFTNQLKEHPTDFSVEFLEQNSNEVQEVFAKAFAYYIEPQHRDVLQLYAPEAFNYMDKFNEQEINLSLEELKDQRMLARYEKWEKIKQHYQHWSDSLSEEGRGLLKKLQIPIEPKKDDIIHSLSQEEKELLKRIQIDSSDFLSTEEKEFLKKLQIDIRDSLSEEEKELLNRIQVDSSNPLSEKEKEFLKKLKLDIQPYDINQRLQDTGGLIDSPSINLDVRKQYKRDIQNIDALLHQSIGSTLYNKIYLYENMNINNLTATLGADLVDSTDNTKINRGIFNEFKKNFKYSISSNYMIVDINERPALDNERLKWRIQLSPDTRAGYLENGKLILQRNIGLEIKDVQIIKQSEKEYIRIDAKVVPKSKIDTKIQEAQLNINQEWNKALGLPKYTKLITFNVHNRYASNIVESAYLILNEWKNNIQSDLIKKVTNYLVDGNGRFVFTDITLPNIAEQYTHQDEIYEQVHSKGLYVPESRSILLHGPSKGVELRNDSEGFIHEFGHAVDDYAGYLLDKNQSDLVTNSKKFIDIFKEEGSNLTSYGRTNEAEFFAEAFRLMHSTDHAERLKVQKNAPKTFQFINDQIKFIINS

| molecule | IC50 |
| --- | --- |
| CCCCCCCC/C=C\CCCCCCCC(=O)NCCc1ccc(O)c(O)c1 [OLEOYL DOPAMINE] | 15 µM |
| CCCCCCCC/C=C\CCCCCCCC(=O)NCCc1cc(O)c(O)cc1O | 70 µM |
| CCCCCCCC/C=C\CCCCCCCC(=O)NCCc1cc(O)c(O)c(O)c1 | 13 µM |
| CCCCCCCC/C=C\CCCCCCCC(=O)NCCc1ccc(C(=O)NO)cc1 | 32 µM |

Cited source for all entries: ChEMBL document CHEMBL1140658
